B1: CPOX (parent)
chain: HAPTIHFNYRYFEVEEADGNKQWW

Variants of: B1
Test: protein stability index of a GFP-peptide fusion (GPS, HEK-293T) (PSI 1-6); higher = more stable;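 note: lentivirally expressed fusions sorted by FACS into six bins by GFP to DsRed ratio, PSI derived from sequencing read proportions per bin multiplied by bin number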
Details: c terminus: a fixed tail appended
Where protein stability index equals or exceeds 3, the correct label is yes; where it does not, the label is no.

Given the entry `T4W` , answer whether its protein stability index meets or surpasses 3.
no

Given the entry `K21M` , answer whether its protein stability index meets or surpasses 3.
no

Given the entry `N20I` , answer whether its protein stability index meets or surpasses 3.
no

Given the entry `W24A` , answer whether its protein stability index meets or surpasses 3.
yes

Given the entry `N20E` , answer whether its protein stability index meets or surpasses 3.
no

Given the entry `W23C` , answer whether its protein stability index meets or surpasses 3.
no

Given the entry `A2M` , answer whether its protein stability index meets or surpasses 3.
no

Given the entry `F7Q` , answer whether its protein stability index meets or surpasses 3.
yes

Given the entry `I5T` , answer whether its protein stability index meets or surpasses 3.
no

Given the entry `H6P` , answer whether its protein stability index meets or surpasses 3.
no
